Molecular target: Mucosa-associated lymphoid tissue lymphoma translocation protein 1 (Homo sapiens) (UniProt Q9UDY8)
Sequence (Q9UDY8 whole entry): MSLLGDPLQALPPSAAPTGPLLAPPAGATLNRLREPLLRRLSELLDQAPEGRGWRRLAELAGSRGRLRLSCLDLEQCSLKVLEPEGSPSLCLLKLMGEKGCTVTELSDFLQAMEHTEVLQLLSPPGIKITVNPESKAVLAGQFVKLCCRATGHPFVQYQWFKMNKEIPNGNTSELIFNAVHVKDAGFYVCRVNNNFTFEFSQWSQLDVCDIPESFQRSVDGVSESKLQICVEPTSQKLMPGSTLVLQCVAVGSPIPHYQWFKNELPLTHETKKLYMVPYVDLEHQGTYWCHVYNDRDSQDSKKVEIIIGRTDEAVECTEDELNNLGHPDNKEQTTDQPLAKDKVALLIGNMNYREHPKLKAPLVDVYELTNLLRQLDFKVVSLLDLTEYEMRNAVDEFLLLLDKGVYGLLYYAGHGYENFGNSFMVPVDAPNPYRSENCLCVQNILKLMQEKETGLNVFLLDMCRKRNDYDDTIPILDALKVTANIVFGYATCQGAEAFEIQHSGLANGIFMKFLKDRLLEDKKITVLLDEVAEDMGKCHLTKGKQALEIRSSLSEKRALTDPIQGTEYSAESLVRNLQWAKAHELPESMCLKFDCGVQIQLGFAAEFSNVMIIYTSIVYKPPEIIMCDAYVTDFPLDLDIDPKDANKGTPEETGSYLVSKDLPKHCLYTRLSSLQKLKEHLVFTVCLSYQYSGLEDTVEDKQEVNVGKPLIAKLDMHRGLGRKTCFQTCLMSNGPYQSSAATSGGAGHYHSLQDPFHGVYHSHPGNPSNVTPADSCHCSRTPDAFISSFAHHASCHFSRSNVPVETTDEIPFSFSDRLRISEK
Assay: Inhibition of recombinant Malt1 (unknown origin) at 10 to 1000 uM preincubated for 1 hr followed by (S)-1-((6-(4-(4-(5,5-Difluoro-3,7-bis(4-methoxyphenyl)-5H-4l4,5l4-dipyrrolo[1,2-c:20,10-f][1,3,2]diazaborinin-10-yl)butyl)-1H-1,2,3-triazol-1-yl)hexanoyl)-L-valyl-L-arginyl)-N-((S)-1-fluoro-6-guanidino-2-oxohexan-3-yl)pyrrolidine-2-carboxamide addition and incubated for 1 hr by SDS-PAGE based competitive activity-based protein profiling assay
experimental-readout: pIC50(app)

>  <smiles-str>
COCCOc1nc(-c2ccc(-c3ccccc3)cc2)n(-c2ccc(NC(=O)CCl)cc2)n1

>  <reported-result>
4.66

$$$$
>  <smiles-str>
COCCOc1nc(-c2ccc3c(c2)OCO3)n(-c2ccc(NC(=O)CCl)cc2)n1

>  <reported-result>
4.06

$$$$
>  <smiles-str>
COCCOc1nc(-c2ccc(F)cc2)n(-c2ccc(NC(=O)CCl)cc2)n1

>  <reported-result>
5.17

$$$$
>  <smiles-str>
COCCOc1nc(-c2cccc(Cl)c2)n(-c2ccc(NC(=O)CCl)cc2)n1

>  <reported-result>
4.57

$$$$
>  <smiles-str>
COCCOc1nc(-c2cccc(Br)c2)n(-c2ccc(NC(=O)CCl)cc2)n1

>  <reported-result>
4.78

$$$$
>  <smiles-str>
COCCOc1nc(-c2ccc(OC)cc2)n(-c2ccc(NC(=O)CCl)cc2)n1

>  <reported-result>
4.35

$$$$
>  <smiles-str>
COCCOc1nc(-c2ccc(Br)cc2)n(-c2ccc(NC(=O)CCl)cc2)n1

>  <reported-result>
5.82

$$$$
>  <smiles-str>
COCCOc1nc(-c2cccc(F)c2)n(-c2ccc(NC(=O)CCl)cc2)n1

>  <reported-result>
4.05

$$$$
>  <smiles-str>
COCCOc1nc(-c2ccc(C)c(C)c2)n(-c2ccc(NC(=O)CCl)cc2)n1

>  <reported-result>
4.82

$$$$
